B1: tRNA (parent)
chain: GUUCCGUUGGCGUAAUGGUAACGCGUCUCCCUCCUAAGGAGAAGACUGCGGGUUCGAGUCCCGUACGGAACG

Variants of: B1
assay-procedure: yeast fitness, log relative to wild type (ln ratio); higher = fitter; tRNA-Arg(CCU), competitive growth, 37 C, 1 M NaCl
assay-readout: yeast fitness (ln)
Format: numeric value only, no unit, no commentary.

>  <primary-sequence>
GUUCCAUUGGCGUAAUGGUAACGCGUUUCCCUCCUAAGGAGACGAUUGCGGGUUCGAGUCCCGUACGGGGCG [G6A C27U A43C C46U A69G A70G]

>  <yeast fitness (ln)>
-0.237

$$$$
>  <primary-sequence>
AGUCCAUUGGCGUAAUGGUAACGCGUUUCCCUCCUAAGGAGAAGACUGCGGGUUCGAGUCCCGUAAGGAGCG [G1A U2G G6A C27U C66A A70G]

>  <yeast fitness (ln)>
-0.296

$$$$
>  <primary-sequence>
AGUCCUUUGGCGUAAUGGUAACGCGUUUCCCUCCUAAGGAGAAGACUGCGGGUUCGAGUCCCGUAAGGAUCG [G1A U2G G6U C27U C66A A70U]

>  <yeast fitness (ln)>
-0.27

$$$$
>  <primary-sequence>
AUUCCAUUGGCGUAAUGGUAACGCGUUUCCCUCCUAAGGAGACGAUUGCGGGUUCGAGUCCCGUACGGGUCG [G1A G6A C27U A43C C46U A69G A70U]

>  <yeast fitness (ln)>
-0.259

$$$$
>  <primary-sequence>
GGUCCGUUGGCGUAAUGGUAACGCGUCUCCCUCCUAAGGAGACGACUGCGGGUUCGAGUCCCGUAAGGAGCG [U2G A43C C66A A70G]

>  <yeast fitness (ln)>
-0.103

$$$$

What does the data say about its yeast fitness (ln)? Entry: AGUCCGUUGGCGUAAUGGUAACGCGUCUCCCUCCUAAGGAGACGACUGCGGGUUCGAGUCCCGUACGGGAUG [G1A U2G A43C A69G C71U]
-0.219

Can you check GCUCCGUUGGCGUAAUGGUAACGCGUCUCCCUCCUAAGGAGAAGAUUGCGGGUUCGAGUCCCGUAAGGAGCG [U2C C46U C66A A70G] next?
-0.0556

Can you check ACUCCGUUGGCGUAAUGGUAACGCGUCUCCCUCCUAAGGAGAAGAUUGCGGGUUCGAGUCCCGUACGGAGUG [G1A U2C C46U A70G C71U] next?
0.000912

Can you check GCUCCUUUGGCGUAAUGGUAACGCGUUUCCCUCCUAAGGAGACGAUUGCGGGUUCGAGUCCCGUAAGGAAUG [U2C G6U C27U A43C C46U C66A C71U] next?
-0.17

Can you check GUUCCAUUGGCGUAAUGGUAACGCGUUUCCCUCCUAAGGAGAAGAUUGCGGGUUCGAGUCCCGUAUGGGUCG [G6A C27U C46U C66U A69G A70U] next?
-0.196

Can you check GGUCCGUUGGCGUAAUGGUAACGCGUCUCCCUCCUAAGGAGACGACUGCGGGUUCGAGUCCCGUAAGGGGUG [U2G A43C C66A A69G A70G C71U] next?
-0.235
